B1: EHBP1 CH (calponin homology) domain [human] / EHBP1 bMERB domain (bMERB_(1060-1212), full-length bMERB domain) [human] (parent complex)
chain 1: GRKPNASQSLLVWCKEVTKNYRGVKITNFTTSWRNGLSFCAILHHFRPDLIDYKSLNPQDIKENNKKAYDGFASIGISRLLEPSDMVLLAIPDKLTVMTYLYQIRAHFSGQ
chain 2: not shown

- Variants of: B1
- run-description: ITC
reported-property: pKd
Entry type: numeric. Quantity: pKd, the -log10 of concentration in molar units.

Tell me measured pKd for chain 1 Q103A please.
5.41
